System Tested: mushroom tyrosinase
Procedure Summary: Mushroom tyrosinase activity assay (L-DOPA to dopachrome)
Format: biochemical
Condition Description: L-DOPA substrate, 37 °C, pH 6.8, mean ± SEM, n = 3
Observation Type: IC50 (µM)

{"columns": ["Molecule", "IC50 (µM)"],
 "data": [
  ["O=C1C=C(Nc2ccccc2)C(=O)c2ccccc21 [compound 1]", 151],
  ["O=C1C(Cl)=C(Nc2ccc(Br)cc2)C(=O)c2ccccc21 [compound 5]", 138],
  ["CC(=O)c1cccc(NC2=C(Cl)C(=O)c3ccccc3C2=O)c1 [compound 10]", 112]
]}
